Data provenance is patent US20240360150A1.

test: Pharmacokinetic study in mice; format: in vivo; details: mouse; IV (2 mg/kg), male CD1 mice, plasma; read-out: Vss

>  <molecule>
N#Cc1ccc(N2CCN(Cc3ccc(Cc4ccc5c6c(cc(F)cc46)C(=O)N5C4CCC(=O)NC4=O)cc3)CC2)c(F)c1 (stereo not shown)

>  <Vd [L/kg]>
1.32

$$$$

----------
assay: Pharmacokinetic study in mice; format: in vivo; conditions: mouse; Table 4; PO (10 mg/kg), male CD1 mice, plasma

>  <molecule>
N#Cc1ccc(N2CCN(Cc3ccc(Cc4ccc5c6c(cc(F)cc46)C(=O)N5C4CCC(=O)NC4=O)cc3)CC2)c(F)c1 (stereo not shown)

>  <measureUnit>
ng/mL

>  <Cmax>
1460

$$$$
